The following compounds are listed with their measured growth values.
system: SNB-19 CNS; assay: NCI-60 one-dose screen, 48 h (100 = growth as untreated, 0 = no growth, -100 = all killed); settings: 10 µM unless noted
This is part of a sample that, as a whole, favours compounds with a hit. Of some 83,000 tested, about 20% had one in any assay.

{"columns": ["compound", "measurement.target", "units.symbol", "growth"],
 "data": [
  ["CCCCN1C(=O)/C(=c2\\sc3n(c2=O)C2C(NN=3)N(CC)C(=O)N2CC)c2cc(C)ccc21 (centres undefined)", "SNB-19 CNS", "%", 93.3],
  ["O=C1[C@@H]2Cc3c([nH]c4ccccc34)[C@H](c3ccc(Cl)cc3)N2C(=O)CN1C1CCN(Cc2ccccc2)CC1", "SNB-19 CNS", "%", 66],
  ["CCc1cccc2c3c(sc12)C(c1ccc(F)cc1)C(C#N)=C(/N=C/c1ccc(Cl)cc1)O3 (centres undefined)", "SNB-19 CNS", "%", 27.1],
  ["C/C(=C(\\c1ccc(O)cc1)c1ccc(OCCN2CCCCCC2)cc1)c1ccc(Cl)cc1", "SNB-19 CNS", "%", -20.6],
  ["NC(=O)n1c(=O)n(-c2cccc(C(F)(F)F)c2)c(=O)c2cc(-c3ccc(F)cc3F)ccc21", "SNB-19 CNS", "%", 11],
  ["C[C@@H]1OCC2(CCN(c3cnc(C(=O)Nc4cc(F)cc5cccnc45)cn3)CC2)[C@@H]1N", "SNB-19 CNS", "%", 78.1],
  ["CNC(=O)c1cc(N2CCc3cc(NC(=O)Nc4ccc(N5CCOCC5)c(C(F)(F)F)c4)ccc32)ccn1", "SNB-19 CNS", "%", 23.1],
  ["CN(C)c1ccc(-c2cc(-c3c[nH]c4ccccc34)nc(N)c2C#N)cc1", "SNB-19 CNS", "%", 40.7],
  ["COc1ccc(-c2nc(C#N)c(N3CCC(S(=O)(=O)N4CCOCC4)CC3)o2)cc1", "SNB-19 CNS", "%", 96.9]
]}

====

system: A549/ATCC NSCLC; experiment: NCI-60 one-dose screen, 48 h; conditions: 10 µM unless noted
The panel holds about 83,000 compounds, 20% with a hit somewhere; the sample as a whole holds those more often. The source made the active and inactive calls. How the source made its calls: active means growth percent below 10; inactive means the rest.
Possible outcomes: yes (1) for active, no (0) for inactive

{"columns": ["compound", "label.value"],
 "data": [
  ["Clc1ccc2c(N/N=C/c3c[nH]c4ccccc34)ccnc2c1", "yes (1)"],
  ["COc1ccc(-c2cc(-c3ccc(N(C)C)cc3)n3c(n2)nc2ccccc23)cc1", "no (0)"],
  ["CCCCCc1ccc(S(=O)(=O)Nc2cc(-c3csc(N)n3)ccc2OC)cc1", "no (0)"],
  ["Cc1ccc(NC(=O)/C=C/c2ccc(OCCCOc3ccc4c(C)cc(=O)oc4c3)cc2)cc1", "no (0)"],
  ["COc1ccc(OC)c(NC(=O)CCCCCCNC(=O)C(O)(O)C(F)(F)F)c1", "no (0)"],
  ["O=C(Nc1ccc(Cl)c(C(F)(F)F)c1)Nc1ccc2oc(=O)ccc2c1", "no (0)"],
  ["C=C(C=O)[C@@H]1CC[C@]2(C(=O)O)CC[C@]3(C)C(CC[C@@H]4[C@@](C)(CCC#N)[C@H](C(=C)C=O)CC[C@]43C)[C@@H]12 (some centres undefined)", "no (0)"],
  ["COc1ccc([C@@H]2C(=O)N(c3cc(OC)c(OC)c(OC)c3)[C@H]2c2ccc(OC)c(O)c2)cc1", "no (0)"],
  ["O=C(Nc1cccc(C(F)(F)F)c1)N1CCN(c2cc(-c3cn(-c4ccccc4)nc3-c3cccc(O)c3)ccn2)CC1", "no (0)"]
]}
